Tgt: FimH-CRD (Escherichia coli, UniProt P08191)
Construct: The first 177 amino acids of the FimH protein; thrombin tag (printed as 'fusion protein with thrombin') (cleaved yes)
Sequence (P08191 22-177): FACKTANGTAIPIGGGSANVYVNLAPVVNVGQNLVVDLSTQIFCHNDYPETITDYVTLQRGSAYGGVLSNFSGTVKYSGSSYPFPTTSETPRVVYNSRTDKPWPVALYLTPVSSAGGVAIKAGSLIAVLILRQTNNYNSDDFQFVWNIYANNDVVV
Assay Method Text: Competitive binding assay by fluorescence polarization, assay 1 (compounds prepared by manual serial dilution)
Test Readout: log10(IC50) (log10 of the value in nM)
Log10 applied to IC50; unit prior to transform: nM.

IN: Request body: readout log10(IC50), system FimH-CRD (Escherichia coli, UniProt P08191), query `Cn1cnc2ccc(-c3cccc([C@H]4O[C@H](CO)[C@@H](O)[C@H](O)[C@@H]4O)c3)cc21` . Return the value.
OUT: 1.28

IN: Lab note: need log10(IC50) with FimH-CRD (Escherichia coli, UniProt P08191) for entry `Cc1cc(C)cc(Oc2cccc([C@H]3O[C@H](CO)[C@@H](O)[C@H](O)[C@@H]3O)c2)c1` , please look it up.
OUT: 1.82

IN: Form entry - test system: FimH-CRD (Escherichia coli, UniProt P08191); read-out: log10(IC50); compound: `Cc1cc(NC(=O)c2cccc([C@H]3O[C@H](CO)[C@@H](O)[C@H](O)[C@@H]3O)c2)n(Cc2ccccc2)n1`
OUT: 2.39

IN: Form: Entry = `Cc1cc(C)cc(Oc2cccc([C@H]3O[C@H](CO)[C@@H](O)[C@H](O[C@H]4O[C@H](CO)[C@@H](O)[C@H](O)[C@@H]4O)[C@@H]3O)c2)c1` | System = FimH-CRD (Escherichia coli, UniProt P08191) | log10(IC50) = ____
OUT: 1.53

IN: // fetch FimH-CRD (Escherichia coli, UniProt P08191) log10(IC50) for `OC[C@H]1O[C@H](c2cccc(-c3ccc4c(c3)OCCO4)c2)[C@@H](O)[C@@H](O)[C@@H]1O`
OUT: 1.74

IN: Test system FimH-CRD (Escherichia coli, UniProt P08191); read-out log10(IC50); what value for `OC[C@H]1O[C@H](O[C@@H]2[C@H](O)[C@@H](c3cccc(Oc4ccc(F)cc4)c3)O[C@H](CO)[C@H]2O)[C@@H](O)[C@@H](O)[C@@H]1O` ?
OUT: 1.73

IN: API: value(readout=log10(IC50), system=FimH-CRD (Escherichia coli, UniProt P08191)) for record `COC(=O)c1cc(Oc2ccc([C@H]3O[C@H](CO)[C@@H](O)[C@H](O)[C@@H]3O)cc2)cc(C(=O)OC)c1`
OUT: 1.40

IN: Provide value of log10(IC50) for this record tested with FimH-CRD (Escherichia coli, UniProt P08191): `OC[C@H]1O[C@H](O[C@@H]2[C@H](O)[C@@H](c3ccc(O)cc3)O[C@H](CO)[C@H]2O)[C@@H](O)[C@@H](O)[C@@H]1O`
OUT: 1.77

IN: Requested read-out log10(IC50), target or system FimH-CRD (Escherichia coli, UniProt P08191), entry `CNC(=O)COc1cccc([C@H]2O[C@H](CO)[C@@H](O)[C@H](O[C@H]3O[C@H](CO)[C@@H](O)[C@H](O)[C@@H]3O)[C@@H]2O)c1`
OUT: 1.66

IN: Please tell me: log10(IC50) of `OC[C@H]1O[C@H](c2cccc(-c3ccsc3)c2)[C@@H](O)[C@@H](O)[C@@H]1O` , system FimH-CRD (Escherichia coli, UniProt P08191)?
OUT: 2.19

IN: Under FimH-CRD (Escherichia coli, UniProt P08191): log10(IC50) value of `CNC(=O)c1cccc(-c2ccccc2[C@H]2O[C@H](CO)[C@@H](O)[C@H](O)[C@@H]2O)c1` ?
OUT: 3.14

IN: Value wanted: log10(IC50) (FimH-CRD (Escherichia coli, UniProt P08191)) of entry `CC(C)C(=O)Nc1ccc(-c2cccc([C@H]3O[C@H](CO)[C@@H](O)[C@H](O)[C@@H]3O)c2)cc1`
OUT: 1.65

IN: Record lookup: for FimH-CRD (Escherichia coli, UniProt P08191), what log10(IC50) belongs to `OC[C@H]1O[C@H](c2cccc(O)c2)[C@@H](O)[C@@H](O)[C@@H]1O` ?
OUT: 1.72

====

Tgt: FimH-CRD (Escherichia coli)
Construct: The first 177 amino acids of the FimH protein; thrombin tag (printed as 'fusion protein with thrombin') (cleaved yes); made in house; host or cells: bacteria (pET21b plasmid)
Assay Method Text: Competitive binding assay by fluorescence polarization, assay 2 (compounds prepared by robotics, plates frozen and thawed)
Test Readout: Kd (nM)
Give just the numeric value; nM need not be written.

IN: Which value of Kd has been reported for COC(=O)c1ccc(Oc2cc([C@H]3O[C@H](CO)[C@@H](O)[C@H](O)[C@@H]3O)ccc2OC)cc1 [Compound 189] in the records?
OUT: 8.1

IN: I have this compound here, Cc1nnc(-c2ccc(-c3cccc([C@H]4O[C@H](CO)[C@@H](O)[C@H](O)[C@@H]4O)c3)nc2)o1 [Compound 183] , and I need its recorded Kd.
OUT: 24.8

IN: Report Kd for OC[C@H]1O[C@H](c2cccc(CCCc3ccccc3)c2)[C@@H](O)[C@@H](O)[C@@H]1O [Compound 99] please.
OUT: 26.4

====

Tgt: FimH-CRD (Escherichia coli)
Construct: The first 177 amino acids of the FimH protein; thrombin tag (printed as 'fusion protein with thrombin') (cleaved yes)
Assay Method Text: Competitive binding assay by fluorescence polarization, assay 1 (compounds prepared by manual serial dilution)
hey, just use satisfied if measured IC50 is less than 0.09 µM, otherwise not satisfied

IN: Determine if `CNC(=O)c1cccc([C@H]2O[C@H](CO)[C@@H](O)[C@H](O)[C@@H]2O)c1` shows IC50 strictly lower than 0.09 µM.
OUT: not satisfied

IN: Field: below-cutoff. Rule: recorded IC50 strictly less than 0.09 µM. Subject: `Cc1ccc(-c2cccc([C@H]3O[C@H](CO)[C@@H](O)[C@H](O)[C@@H]3O)c2)cc1`
OUT: satisfied

IN: Threshold test, IC50 < 0.09 µM: `O=C(Nc1nc2ccc(Cl)cc2s1)c1cccc([C@H]2O[C@H](CO)[C@@H](O)[C@H](O)[C@@H]2O)c1`
OUT: satisfied

IN: Field: below-cutoff. Rule: recorded IC50 strictly less than 0.09 µM. Subject: `CNC(=O)c1ccc(Oc2cccc([C@H]3O[C@H](CO)[C@@H](O)[C@H](O)[C@@H]3O)c2)cc1`
OUT: satisfied

IN: In plain terms, does `CCCOc1ccc(F)c(-c2cccc([C@H]3O[C@H](CO)[C@@H](O)[C@H](O)[C@@H]3O)c2)c1` come in under 0.09 µM for IC50?
OUT: satisfied

IN: Regarding `COC(=O)COc1cccc([C@H]2O[C@H](CO)[C@@H](O)[C@H](O[C@H]3O[C@H](CO)[C@@H](O)[C@H](O)[C@@H]3O)[C@@H]2O)c1` , kindly confirm whether its IC50 is beneath 0.09 µM.
OUT: satisfied

====

Tgt: FimH-CRD (Escherichia coli)
Construct: The first 177 amino acids of the FimH protein; thrombin tag (printed as 'fusion protein with thrombin') (cleaved yes); made in house; host or cells: bacteria (pET21b plasmid)
Assay Method Text: Competitive binding assay by fluorescence polarization, assay 2 (compounds prepared by robotics, plates frozen and thawed)
// classify: if (Kd < 20 nM) 1 else -1

IN: Criterion: Kd strictly below 20 nM. Is it met by `CNC(=O)c1cc(CCCc2cccc([C@H]3O[C@H](CO)[C@@H](O)[C@H](O)[C@@H]3O)c2)cc(C(=O)NC)c1` ?
OUT: -1

IN: Hello, is Kd of the following compound strictly smaller than 20 nM? `OC[C@H]1O[C@H](c2cccc(-c3ccc(-c4nnco4)cc3)c2)[C@@H](O)[C@@H](O)[C@@H]1O`
OUT: 1

IN: Would you kindly verify if Kd of `Cc1nnc(-c2cccc(-c3ccc([C@H]4O[C@H](CO)[C@@H](O)[C@H](O)[C@@H]4O)cc3)c2)o1` is strictly less than 20 nM?
OUT: -1

IN: Could you please tell me whether Kd recorded for OC[C@H]1OC(c2ccc(OCc3ccc4ccccc4c3)cc2)[C@@H](O)[C@@H](O)[C@@H]1O (some centres unmarked) is less than 20 nM?
OUT: -1

IN: Is Kd strictly under 20 nM for the entry `OC[C@H]1O[C@H](c2ccc3cc(-c4cc(Cl)cc(Cl)c4)ccc3c2)[C@@H](O)[C@@H](O)[C@@H]1O` ?
OUT: -1

IN: Threshold test, Kd < 20 nM: `CNC(=O)c1cccc(-c2ccc3cc([C@H]4O[C@H](CO)[C@@H](O)[C@H](O)[C@@H]4O)ccc3c2)c1`
OUT: 1

IN: Would you kindly verify if Kd of `CNC(=O)c1ccc(Oc2cc([C@H]3O[C@H](CO)[C@@H](O)[C@H](O)[C@@H]3O)ccc2OC)cc1` is strictly less than 20 nM?
OUT: 1

IN: Please state whether Kd is below 20 nM for CCC(C)COc1cccc(C2O[C@H](CO)[C@@H](O)[C@H](O)[C@@H]2O)c1 (some centres unmarked)
OUT: 1

IN: Say whether its Kd is strictly beneath 20 nM. Entry: `COC(=O)c1ccc(CCc2ccc([C@H]3O[C@H](CO)[C@@H](O)[C@H](O)[C@@H]3O)cc2)cc1`
OUT: 1

IN: hey, is Kd for `OC[C@H]1O[C@H](c2cccc(-c3nc4cc(Cl)ccc4[nH]3)c2)[C@@H](O)[C@@H](O)[C@@H]1O` lower than 20 nM or not?
OUT: -1

IN: Strictly below 20 nM: is that where Kd of `CNC(=O)c1ccc(-c2cccc([C@H]3O[C@H](CO)[C@@H](O)[C@H](O)[C@@H]3O)c2)cc1-n1cncn1` sits?
OUT: -1

IN: Field: below-cutoff. Rule: recorded Kd strictly less than 20 nM. Subject: COC(=O)c1ccc(COc2cccc(C3O[C@H](CO)[C@@H](O)[C@H](O)[C@@H]3O)c2)cc1 (some centres unmarked)
OUT: 1

IN: State whether 20 nM exceeds Kd recorded for `COc1cc(-c2cccc([C@H]3O[C@H](CO)[C@@H](O)[C@H](O)[C@@H]3O)c2)ccc1-c1nnc(C)o1` .
OUT: 1

IN: Check if Kd falls below 20 nM for `OC[C@H]1O[C@H](c2cccc(-c3cc(Cl)cc(Cl)c3)c2)[C@@H](O)[C@@H](O)[C@@H]1O` .
OUT: 1
